Origin of values: PubChem BioAssay (EPA / NIEHS)

- method-notes: CEETOX_H295R_DOC: CeeTox H295R High-throughput Steroidogenesis Assay for DOC (AID 2283439)
- recorded-conditions: actives raise or lower the signal
Active and inactive are the calls of the source. How the source made its calls: active means hit-call score of the fitted dose curve at least 0.9, where 1 is the maximum; inactive means score below 0.9.
endpoint-label: AC50

> print(dat)
                              sample.smiles           result
1     CCn1nc(C)c2c1C(=O)NCC(c1ccc(O)cc1)=N2   50 µM (active)
2  CCCOc1ccc(S(=O)(=O)N2CCN(CC)CC2)cc1-c1nc2c(CC)n(Cc3ccccn3)nc2c(=O)[nH]1         inactive
3  CC[C@H](C)C(=O)O[C@H]1C[C@H](O)C=C2C=C[C@H](C)[C@H](CC[C@@H](O)C[C@@H](O)CC(=O)O)[C@H]21  2.7 µM (active)
4  CC(C)c1nnc2ccc(-c3ocnc3-c3cc(F)ccc3F)cn12         inactive

Look up AC50 for this molecule: Nc1ccn([C@@H]2O[C@H](CO)[C@@H](O)[C@@H]2O)c(=O)n1 inactive

###

- method-notes: Tanguay_ZF_120hpf_EDEM: Oregon State University Tanguay Lab 120 Hour Post-fertilization zebrafish Assay for Edema Malformation (AID 2284400)
Active and inactive are the calls of the source. Rule for the calls: active = hit-call score of the fitted dose curve at least 0.9, where 1 is the maximum; inactive = score below 0.9.
API: response.call in label 1 for active, label 0 for inactive

> print(dat)
                                   compound  assigned.class
1  O=S(=O)(O)CCC(F)(F)C(F)(F)C(F)(F)C(F)(F)C(F)(F)C(F)(F)F         label 0

As a next step, examine the compound that follows.
Tell me the assay call for FC(F)(F)C(F)(F)C(F)(F)C(F)(F)C(F)(F)C(F)(F)I please. label 0

###

- method-notes: ACEA_AR_antagonist_AUC_viability: ACEA Biosciences xCELLigence Real-Time Cell Analysis on Androgen Receptor Antagonism for Viability (AID 2283776);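 further: 22Rv1 human prostate cancer cells growing on impedance electrode plates; area under impedance growth curve at 80 h after dosing as viability; hits lower the growth signal relative to DMSO meaning cytotoxicity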
Inconclusive results are not listed. Activity calls are given as the source filed them. The calls were made as follows: active = hit-call score of the fitted dose curve at least 0.9, where 1 is the maximum; inconclusive = response in the unintended direction; inactive = score below 0.9.
Parameter call: string, one of yes for active, no for inactive

> print(dat)
            sample.smiles  assigned.class
1         CCCCCCCCCCCCCCO             yes
2    c1ccc2cc3ccccc3cc2c1              no
3             CCCc1ccccc1              no
4              OC(CCl)CCl              no
5  O=C(O)c1cccc(C(=O)O)c1              no

Recorded test outcome, item COS(C)(=O)=O no

Can you look up the reported call for c1ccc(C(O[C@@H]2CCCN(CCc3ccc4c(c3)OCO4)C2)c2ccccc2)cc1 for me? yes

Write down the call the test reported for this compound. Item: CCc1cccc(CC)c1N yes

###

- Read-out: Intercellular Adhesion Molecule 1 (ICAM1), ICAM1 (gene 3383)
- method-notes: BSK_BF4T_ICAM1: BioMAP Diversity Plus: BF4T Assay for Intercellular Adhesion Molecule 1 (ICAM1) Biomarker Activity (AID 2284260)
- recorded-conditions: primary human bronchial epithelial cells with fibroblasts
Calls of active or inactive are those of the source. How the source made its calls: active means hit-call score of the fitted dose curve at least 0.9, where 1 is the maximum; inactive means score below 0.9.
endpoint-label: outcome

> print(dat)
                                   compound  endpoint.label    result
1         C[Si](C)(C)C(F)(F)C(F)(F)C(F)(F)F         outcome  inactive
2           NCC(F)(F)C(F)(F)C(F)(F)C(F)(F)F         outcome  inactive
3        OC(O)(C(F)C(O)(O)C(F)(F)F)C(F)(F)F         outcome  inactive
4  O=S(=O)(O)CCC(F)(F)C(F)(F)C(F)(F)C(F)(F)C(F)(F)C(F)(F)F         outcome  inactive
5  FC(F)C(F)(F)COCC1CO1 (configuration not stated)         outcome  inactive

What value of outcome has been recorded for this entry: FC(F)=C(F)C(F)(F)C(F)(F)C(F)(F)C(F)(F)C(F)(F)C(F)(F)F inactive

Recorded outcome for OCCC(F)(F)C(F)(F)C(F)(F)C(F)(F)F , please? inactive
